- Tested On: T1, Dimeric monkey CD48-mFc (monkey)
- T1 construct: Soluble monkey CD48 with a C-terminal Fc fusion [mFc]; the whole entry is the construct
- T1 chain: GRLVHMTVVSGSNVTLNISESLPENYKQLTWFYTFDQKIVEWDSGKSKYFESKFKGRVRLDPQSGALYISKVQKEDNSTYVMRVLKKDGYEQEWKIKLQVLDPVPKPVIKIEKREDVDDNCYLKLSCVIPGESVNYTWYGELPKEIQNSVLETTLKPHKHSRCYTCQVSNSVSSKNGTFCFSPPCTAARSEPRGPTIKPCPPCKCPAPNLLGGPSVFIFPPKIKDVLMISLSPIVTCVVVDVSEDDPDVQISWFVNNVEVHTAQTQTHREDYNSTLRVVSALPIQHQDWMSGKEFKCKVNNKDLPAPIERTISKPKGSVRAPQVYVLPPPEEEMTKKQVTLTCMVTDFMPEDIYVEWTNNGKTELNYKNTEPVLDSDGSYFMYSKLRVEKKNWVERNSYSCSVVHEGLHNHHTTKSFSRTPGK
- Procedure Text: SPR (Biacore), antibody captured by anti-Fc, CD48 in solution, 37 C
- Protocol: Measurements were conducted on a T100-2 BIACORE™ instrument (Biacore Life Sciences division of GE Healthcare, Piscataway, N.J.). […] The soluble CD48 was applied to the flow cell in separate injections at different concentrations, and kinetic association (kₐ) and dissociation (kd) rate constants were determined by fits to the kinetic binding data using Biacore software. […]
# Kd per record follows
Dear colleague, please return just the value in nM, with no unit written.

// below: answered binders
H4H1770P (antibody, human IgG4, V domains shown, Human IgG4 Fc (H4H)) VH: QVQLVQSGAEVKKPGAAVKVSCKASGYTFTAYGISWVRQAPGQGLEWMGWISAYDGDTNNAQKFQGRVTMTTDTSSSTAYMELRSLGSDDTAVYYCARDRYSSSSGYFDYWGQGTLVTVSS VL: DIQMTQSPSSVSASVGDRVTITCRASQDISSWLAWSQQKPGKAPKALIYAASSLQSGVPSRFSGSGSGTDFTLTISSLQPEDFATYYCQQANSFPYTFGQGTKLEIK = 0.0911
H4H1713N (antibody, V domains shown, Human IgG4 Fc (H4H)) VH: QVQLVQSGAEVKKPGASVKVSCKASGHTFTNYYIHWVRQAPGQGLEWMGITNPNDGNTRYAQKFQGRISMTWDTSTSTVFMELSSLKSEDTAVYYCAGLRYWFFDLWGRGTPVTVSS VL: DIQMTQSPSSVSASVGDRVTITCRASQDISSWLAWYQQKPGKAPNLLIFAASSLQSGVPSRFSGSGSGTDFTLTISSLQPEDFGTYYCQQTDNFPRTFGQGTKVEIN = 0.3

# context switch: different binder, same Kd
[ask] What value of measured Kd is listed for H4H1775P (antibody, human IgG4, V domains shown, Human IgG4 Fc (H4H)) VH: QVQLVESGGGVVQPGRSLRLSCAASGFTFSNYGMHWVRQAPGKGLEWVAVIWYDESGKHYADSVKGRFTISRDNSQNTLYLQMTSLRAEDTAVYYCARDRWTYSHYFEYWGQGTLVTVSS VL: DIQMTQSPSSVSASVGDRVTITCRASQDISSWVAWYQQKPGKAPKLLIYAASSLQSGVPSRFSGSGSGTDFTLTISSLQPEDFATYYCQQANSFPRTFGQGTKVEIK ?
[reply] 0.0593

Data provenance: patent US20130230533A1
